Kindly state survival for each of the entries shown.
tested on: DeltatarO mutant; test: S. aureus survival, RN4220 and DeltatarO strains – OD600, teichoic acid synthesis inhibitors, primary screen (AID 463173); settings: S. aureus RN4220 wild type/DeltatarO growth, OD600, 18 h, active compounds read low, screened at 18.75 µg/mL (by protocol)
About 4,300 (8.3%) of roughly 52,000 compounds were called active. For the sample, actives were picked, then their nearest neighbours and some compounds at random.
Answers are plain numbers, in %.

Guide cases for survival, answers given:
Entry N#Cc1ccccc1CSc1nnc(-c2ccc(Br)cc2)o1 , survival reported as 92

GET /value?item= N#Cc1ccc(CSc2nnc(-c3ccc(Br)cc3)o2)cc1 &field=survival returns 87

For this molecule ( Cc1c(C(=O)NCCc2ccccc2)cccc1-n1cnc2cccnc21 ), measured survival is 75

Fill in survival for each of the 2 molecules listed.
1. Cc1ccc(CSc2nc3ccsc3c(=O)n2CCC(C)C)cc1
2. COc1ccc(-c2nnc(SCC(=O)Oc3cc(C)ccc3C)o2)cc1

[-5, 67]

----------
test system: DeltatarO mutant; experiment: S. aureus survival, RN4220 and DeltatarO strains – OD600, teichoic acid synthesis inhibitors, primary screen (AID 463173); details: S. aureus RN4220 wild type/DeltatarO growth, OD600, 18 h, active compounds read low, screened at 18.75 µg/mL (by protocol)
Screen size: about 52,000 compounds; about 4,300 (8.3%) were called active. Shown is part of a subset that was picked to be rich in actives.
PROPERTY_LABEL: survival (%)
Answers are plain numbers, in %.

Worked set:
Form: item COc1ccccc1C(=O)Nc1nnc(S(=O)(=O)N2CCCCCC2)s1 ; test system DeltatarO mutant; survival: 56

Field survival (system: DeltatarO mutant) for entry COc1ccc(NC(=O)CSC2=Nc3ccccc3C3=NC(CC(=O)NCc4ccc(F)cc4)C(=O)N23)cc1 (centres undefined) = 55

survival on DeltatarO mutant for CCOC(=O)c1cc(-c2ccc(F)cc2)n(CCC(=O)Nc2cc(OC)cc(OC)c2)c1C is 71

Summary: N#CC(C#N)=C(C#N)c1cc2c([nH]1)CCCC2 , DeltatarO mutant, survival = 81

Sample CCOc1ccc(CC(=O)Nc2ccc3nc(N4CCCCC4)cc(C)c3c2)cc1OCC , system: DeltatarO mutant. Its survival is 92

// batch mode: one survival value per listed entry
1. CCN1CCN(c2cc(C)c3cc(NC(=O)c4ccc(OC)c(OC)c4)ccc3n2)CC1
2. Cc1cc(C(=O)Nc2ccc(C(C)C)cc2)c2c(C)nn(-c3ccccc3)c2n1
3. COc1ccccc1C(=O)Nc1nnc(S(=O)(=O)N2CCN(c3ccc(F)cc3)CC2)s1
4. CCOc1cc(C(=O)Nc2ccc3nc(N4CCN(C)CC4)cc(C)c3c2)cc(OCC)c1OCC
5. COc1ccc(CNC(=O)c2cnn(-c3ccccc3)c2-n2cccc2)cc1OC
6. CCN(CC)c1ccc(C(=O)N2CCC(c3c[nH]c4ccccc34)(c3c[nH]c4ccccc34)CC2)cc1

[44, 73, 50, 137, 113, 104]

----------
tested on: DeltatarO mutant; assay: S. aureus survival, RN4220 and DeltatarO strains – OD600, teichoic acid synthesis inhibitors, primary screen (AID 463173); settings: S. aureus RN4220 wild type/DeltatarO growth, OD600, 18 h, active compounds read low, screened at 18.75 µg/mL (by protocol)
The campaign covered roughly 52,000 compounds. About 4,300 (8.3%) were called active. The list comes from a sample in which actives are over-represented; it also holds close analogues and randomly drawn compounds.
PROPERTY_LABEL: survival (%)
One number for each entry, in %.

// sample O=C(Nc1ccc2nc(SCCOc3ccccc3Cl)sc2c1)c1ccc2c(c1)OCO2 , its survival was 68

survival measured on CCCn1c(CCC(=O)Nc2ccccc2OC)nc2cccnc21 = 88

survival measured on Cc1ccc(NC(=O)Cn2c(=O)n(CCCCCC(=O)NCc3ccc(F)cc3)c(=O)c3sccc32)c(C)c1 = 66

survival measured on O=C(CSCn1nnc2c(=O)[nH]c(Cc3ccc(F)cc3)nc21)Nc1cccc(C(F)(F)F)c1 = 64

// field: survival; key: O=C(NC1CC(=O)N(c2cccc(F)c2)C1)c1ccc(S(=O)(=O)N2CCOCC2)cc1 (centres undefined) ; value = 76

Below are some compounds; for each one, tell me its survival.
1. CCCCOc1ccc(C2=NC(c3ccncc3)=Nc3ccc(Br)cc3N2)cc1
2. CCOC(=O)c1ccc(NC(=O)CSc2nccn2Cc2ccc(OC)cc2)cc1
3. COc1ccc(N2CCN(CCCNC(=O)c3ccc4nc(N5CCCCC5)sc4c3)CC2)cc1
4. CCOC(=O)c1cc2c(=O)n3ccccc3nc2n(Cc2ccco2)c1=NC(=O)c1cccc(F)c1
5. CC1=C(C(=O)NCc2ccc(Cl)cc2)C2(CCC(C)CC2)OC1=O (centres undefined)
6. N#Cc1ccccc1Cn1c(=O)n(Cc2ccc(C(=O)NC3CCN(Cc4ccccc4)CC3)cc2)c(=O)c2ccccc21
7. COc1cc(NC(=O)CN2C(=O)c3ccccc3Sc3ccc(C(=O)N4CCCC4)cc32)cc(OC)c1
8. CCOC(=O)c1c(C)[nH]c(C)c1S(=O)(=O)N(C)CC(=O)Nc1cccc(Cl)c1C

1. 12
2. 79
3. 78
4. 17
5. 86
6. 90
7. 72
8. 73

Batch of 7 compounds: report survival for each.
1. CCOC(=O)c1cc2c(=O)n3ccccc3nc2n(Cc2ccco2)c1=NC(=O)c1ccc(C)c(C)c1
2. COc1ccc(CNC(=O)c2cc(-c3cccc(Cl)c3)on2)cc1
3. COc1cccc(-c2cc(C(=O)NCCc3ccc(OC)c(OC)c3)no2)c1
4. Cc1ccc(C)c(NC(=O)c2nnn(CC(=O)Nc3cccc(C)c3C)c2N)c1
5. CCc1ccc(C(=O)c2cn(CC(=O)Nc3cc(OC)cc(OC)c3)c3ccc(CC)cc3c2=O)cc1
6. CCN(CC)C(=O)Cn1nnc2sc(-c3ccccc3)cc2c1=O
7. COc1cccc(-c2cc(C(=O)NCc3ccc(F)cc3)no2)c1

1. 34
2. 49
3. 173
4. 98
5. 84
6. 56
7. 30

// for each compound in input: emit survival
1. COC(=O)c1ccccc1NC(=O)Cn1nnc2sc(-c3ccccc3)cc2c1=O
2. COc1ccc(CNC(=O)c2cc(-c3ccc(OC)cc3)on2)cc1
3. N#C/C(=C\c1ccc(F)cc1)C(=O)NCC1CCCO1 (centres undefined)
4. N#C/C(=C\c1ccc(Cl)cc1)C(=O)NCC1CCCO1 (centres undefined)
5. CCN(C(=O)Cn1nnc2sc(-c3ccccc3)cc2c1=O)c1cccc(C)c1
6. O=C1C(=O)N(C2CCN(C(=O)c3ccccc3Cl)CC2)CCN1Cc1ccc(F)cc1

52
210
68
44
50
67

// for each compound below, give its survival
1. Cc1cc2ccccc2n1-c1ccc(C(=O)N2CCC(C(=O)NCc3ccc(F)cc3)CC2)s1
2. CC(=O)c1ccc(NC(=O)Cn2c(=O)cc(C)c3c(C)nn(-c4cccc(F)c4)c32)cc1
3. OCCN(Cc1ccccc1)Cc1ccccc1O
4. CCCCOc1ccc(C2=NC(c3ccncc3)=Nc3ccc(OCC)cc3N2)cc1
5. COc1ccccc1NC(=O)c1cc(S(=O)(=O)N2CCc3ccccc32)ccc1F
6. CCOc1ccccc1Nc1sc(C(=O)c2ccccc2)c(N)c1C(=O)NCCc1ccccc1

[6, 81, 102, 75, 81, 99]

Batch request: survival for each of the following compounds.
1. CC(Oc1ccccc1)C(=O)Nc1ccccc1C(=O)OCc1cc(=O)n2nc(C(C)C)sc2n1 (centres undefined)
2. COC(=O)C1(CO)NC(c2ccc(Cl)cc2)C2C(=O)N(C)C(=O)C21 (centres undefined)

1: 83; 2: 66

----------
tested on: DeltatarO mutant; experiment: S. aureus survival, RN4220 and DeltatarO strains – OD600, teichoic acid synthesis inhibitors, primary screen (AID 463173); conditions: S. aureus RN4220 wild type/DeltatarO growth, OD600, 18 h, active compounds read low, screened at 18.75 µg/mL (by protocol)
Out of some 52,000 compounds screened, about 4,300 (8.3%) were called active. This is one part of a sample in which actives are shown more often than they occur.
PROPERTY_LABEL: survival (%)
Numbers only, in %.

Worked cases, survival given:
Measured survival of CCOC(=O)C1CCN(C(c2cc3ccc(OC)cc3n3nnnc23)c2nnnn2C2CCCC2)CC1 (stereo unspecified) : 101

In plain terms, Cc1ccc(Cn2cccc(NC(=O)c3ccncc3)c2=O)cc1 has a documented survival of 101

What the record says about CCOc1ccc(NC(=O)CSC2=Nc3ccccc3C3=NC(CC(=O)NCc4ccco4)C(=O)N23)cc1 (stereo unspecified) : survival is 69

Looking up CCCc1cc(=O)oc2cc(C)c3c(-c4ccccc4)coc3c12 , I see its survival listed as 65

Lab book: survival of CCc1ccccc1NC(=O)C1CCN(c2cnccn2)CC1 noted as 43

Give one value of survival per listed compound.
1. CC(C)Cn1c(N2CCN(C(=O)c3sc4ccccc4c3Cl)CC2)nc2ccccc21
2. COc1cccc(C2C=C(c3ccccc3)Nc3c(C(=O)Nc4ccccc4)cnn32)c1OC (stereo unspecified)
3. CCOc1ccc(NC(=O)c2cnn3c2NC(c2ccccc2)=CC3c2cccc(OC)c2OC)cc1 (stereo unspecified)
4. O=C(c1cccs1)N(Cc1cccnc1)c1nc2c(Cl)cccc2s1
5. COc1cccc(NC(=O)CSc2nc3ccc(NC(=O)c4cccs4)cc3s2)c1

89
13
62
82
65

# batch size: 8; output survival per entry
1. CCCCS(=O)(=O)c1oc(-c2ccc(F)cc2)nc1S(=O)(=O)c1ccccc1
2. N/C(=N/OC(=O)c1ccccc1)c1ccccn1
3. CSc1ncc(C(=O)NCc2ccc(C)cc2)c(C)n1
4. Cc1oc(C(C)(C)C)cc1C(=O)NCCO
5. CSc1ncc(C(=O)NCc2ccccc2)c(-c2ccccc2)n1
6. Cn1cnnc1SCC(=O)O
7. CCc1ccc(C2C(C(=O)Nc3ccccc3OC)=C(C)Nc3c(C(=O)Nc4ccc(C)cc4)cnn32)cc1 (stereo unspecified)
8. COc1cc(OC)c(C2C=C(c3ccc(C)cc3)Nc3c(C(=O)Nc4ccccc4)cnn32)cc1OC (stereo unspecified)

1. 4
2. 87
3. 69
4. 77
5. 37
6. 85
7. 68
8. 48
